Assay: in vivo
Conditions: in vivo
Description: [formula] a=ethanolamine salt of 1-hydroxy-4,6-dimethyl-2-pyridone b=zinc salt of 1-hydroxy-4,6-dimethyl-2-pyridone c=zinc salt of 1-hydroxy-4-methyl-6-(2,4,4-trimethyl-pentyl)2-pyridone d=ethanolamine salt of 1-hydroxy-4-methyl-6-cyclohexyl-2-pyridone, administered in starch mucilage e=zinc salt of 1-hydroxy-4-methyl-6-cyclohexyl-2-pyridoneand [formula]
Measured metric: LD50 (mg/kg)

1. Cc1cc(C2CCCCC2)n(O)c(=O)c1 [d] :: 5500

====

Assay: LD50 toxicity comparison
Details: species and route not given
Measured metric: LD50

1. Cc1cc(C2CCCCC2)n([O-])c(=O)c1.Cc1cc(C2CCCCC2)n([O-])c(=O)c1.[Zn+2] [e] :: more than 6400 mg/kg
2. Cc1cc(CC(C)CC(C)(C)C)n([O-])c(=O)c1.Cc1cc(CC(C)CC(C)(C)C)n([O-])c(=O)c1.[Zn+2] (stereo not shown) [c] :: more than 6400 mg/kg
3. Cc1cc(C)n([O-])c(=O)c1.Cc1cc(C)n([O-])c(=O)c1.[Zn+2] [b] :: more than 6400 mg/kg
4. [O-]n1ccccc1=S.[O-]n1ccccc1=S.[Zn+2] [g, zinc salt of 1-hydroxy-2-pyridine-thione] :: 700 mg/kg
